System tested: T1, Human CD137 ECD (human)
T1 construct: also called 4-1BB
T1 sequence (chain, as listed by the source limits assumed): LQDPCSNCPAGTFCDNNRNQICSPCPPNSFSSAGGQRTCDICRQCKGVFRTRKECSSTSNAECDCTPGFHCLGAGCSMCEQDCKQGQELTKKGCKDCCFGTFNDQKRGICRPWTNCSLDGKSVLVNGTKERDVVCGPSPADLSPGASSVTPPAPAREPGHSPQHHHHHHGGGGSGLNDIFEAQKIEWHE
Assay protocol: single mutant vs template dBBDu183H
Experimental readout: fold change of affinity (fold)
The answer is to be given in fold; state only the numeric part.

Reference set (4 entries):
Binder	fold change of affinity [fold]
H183/L072 VH N31P (antibody, name in Kabat numbering, V domains shown) VH: QVQLVESGGGLVQPGRSLRLSCAASGFTFSPAWMHWVRQAPGKGLEWVAQIKDKGNAYAAYYAPSVKGRFTISRDDSKNSIYLQMNSLKTEDTAVYYCHYVHYASASTVLPAFGVDAWGQGTTVTVSS VL: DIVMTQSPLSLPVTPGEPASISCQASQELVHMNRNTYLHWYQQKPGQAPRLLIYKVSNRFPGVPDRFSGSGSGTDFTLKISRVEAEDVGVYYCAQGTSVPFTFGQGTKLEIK	0.4
H183/L072 VH A32R (antibody, name in Kabat numbering, V domains shown) VH: QVQLVESGGGLVQPGRSLRLSCAASGFTFSNRWMHWVRQAPGKGLEWVAQIKDKGNAYAAYYAPSVKGRFTISRDDSKNSIYLQMNSLKTEDTAVYYCHYVHYASASTVLPAFGVDAWGQGTTVTVSS VL: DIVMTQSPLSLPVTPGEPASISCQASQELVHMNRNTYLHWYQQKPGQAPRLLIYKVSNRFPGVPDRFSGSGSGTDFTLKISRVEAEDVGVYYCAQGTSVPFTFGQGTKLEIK	0.3
H183/L072 VH G26W (antibody, name in Kabat numbering, V domains shown) VH: QVQLVESGGGLVQPGRSLRLSCAASWFTFSNAWMHWVRQAPGKGLEWVAQIKDKGNAYAAYYAPSVKGRFTISRDDSKNSIYLQMNSLKTEDTAVYYCHYVHYASASTVLPAFGVDAWGQGTTVTVSS VL: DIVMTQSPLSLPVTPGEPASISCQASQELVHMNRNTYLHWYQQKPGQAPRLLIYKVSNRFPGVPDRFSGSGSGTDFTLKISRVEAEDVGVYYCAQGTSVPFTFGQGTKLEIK	0.3
H183/L072 VH A32L (antibody, name in Kabat numbering, V domains shown) VH: QVQLVESGGGLVQPGRSLRLSCAASGFTFSNLWMHWVRQAPGKGLEWVAQIKDKGNAYAAYYAPSVKGRFTISRDDSKNSIYLQMNSLKTEDTAVYYCHYVHYASASTVLPAFGVDAWGQGTTVTVSS VL: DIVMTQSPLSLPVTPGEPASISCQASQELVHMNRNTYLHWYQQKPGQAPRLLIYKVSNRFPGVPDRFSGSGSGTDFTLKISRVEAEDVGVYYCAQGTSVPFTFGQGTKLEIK	1.2

Need fold change of affinity, item H183/L072 VH A60K (antibody, name in Kabat numbering, V domains shown) VH: QVQLVESGGGLVQPGRSLRLSCAASGFTFSNAWMHWVRQAPGKGLEWVAQIKDKGNAYAAYYKPSVKGRFTISRDDSKNSIYLQMNSLKTEDTAVYYCHYVHYASASTVLPAFGVDAWGQGTTVTVSS VL: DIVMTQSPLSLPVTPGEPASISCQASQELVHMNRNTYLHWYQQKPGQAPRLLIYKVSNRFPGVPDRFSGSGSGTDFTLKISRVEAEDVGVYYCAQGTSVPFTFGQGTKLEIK 1.1
